- Organism: Rattus norvegicus
- assay_procedure: Open TG-GATES - Regimen: Daily Repeat
- Format: toxicity, organism-based, Sprague-Dawley
- Design: regimen Daily Repeat, gender Male, age 6 weeks
- test_context: in vivo, po, 0 mg/kg, […], tissue Blood, route gavage, dose level Control, time 14 day
Consider the following compounds; for each one, report its Eos.
Numbers only, in %.

* ClC(Cl)(Cl)Cl [CARBON TETRACHLORIDE] | 0.8
* OCCOCCN1CCN(C(c2ccccc2)c2ccc(Cl)cc2)CC1 (stereo unspecified) [HYDROXYZINE] | 1
* CCCCc1oc2ccccc2c1C(=O)c1cc(I)c(OCCN(CC)CC)c(I)c1 | 0.8

# return Eos for each item in the list
1. CC(C)N(CCC(C(N)=O)(c1ccccc1)c1ccccn1)C(C)C (stereo unspecified) [DISOPYRAMIDE]
2. CC[C@H]1[C@@H]2C[C@H]3[C@@H]4N(C)c5ccccc5[C@]45C[C@@H]([C@@H]2[C@H]5O)N3[C@@H]1O

Result:
[1, 0.8]

Could you tell me Eos for each of these compounds? They are listed below.
1. CCC1(c2ccccc2)C(=O)NC(=O)NC1=O
2. CC1=C(CC(=O)O)c2cc(F)ccc2/C1=C\c1ccc([S+](C)[O-])cc1 (stereo unspecified)
3. CN(C)C(=N)N=C(N)N
4. CCc1oc2ccccc2c1C(=O)c1cc(Br)c(O)c(Br)c1

Result:
[0.4, 1, 0.8, 1.6]

# per-item lookup of Eos; items listed below
1. CN(C)CCC=C1c2ccccc2COc2ccccc21 [DOXEPIN]
2. O=NN(CCCl)C(=O)NC1CCCCC1

Result:
1. 0.8
2. 0.4

====

- Organism: Rattus norvegicus
- assay_procedure: Open TG-GATES - Regimen: Single
- Assay type: toxicity, organism-based, Sprague-Dawley
- Set-up: regimen Single, gender Male, age 6 weeks
- test_context: in vivo, po, 0 mg/kg, 24 h, tissue Blood, route gavage, dose level Control
recorded_endpoint: MCH

- CN(C)CCC=C1c2ccccc2COc2ccccc21 [DOXEPIN]: 21.7 pg
- CC[C@H]1[C@@H]2C[C@H]3[C@@H]4N(C)c5ccccc5[C@]45C[C@@H]([C@@H]2[C@H]5O)N3[C@@H]1O [AJMALINE]: 21.6 pg
- OCCOCCN1CCN(C(c2ccccc2)c2ccc(Cl)cc2)CC1 (centres undefined) [HYDROXYZINE]: 21.6 pg
- ClC(Cl)(Cl)Cl [CARBON TETRACHLORIDE]: 22.5 pg
- O=NN1CCOCC1 [N-NITROSOMORPHOLINE]: 20.2 pg

I have 4 compounds here; please give me MCH for each one.
1. CCC1(c2ccccc2)C(=O)NC(=O)NC1=O [PHENOBARBITAL]
2. CC1=C(CC(=O)O)c2cc(F)ccc2/C1=C\c1ccc([S+](C)[O-])cc1 (centres undefined)
3. CCc1oc2ccccc2c1C(=O)c1cc(Br)c(O)c(Br)c1 [BENZBROMARONE]
4. O=NN(CCCl)C(=O)NC1CCCCC1 [LOMUSTINE]

Result:
1: 21 pg; 2: 21 pg; 3: 21.4 pg; 4: 22.5 pg

====

- Organism: Rattus norvegicus
- assay_procedure: Open TG-GATES - Regimen: Daily Repeat
- Format: toxicity, organism-based, Sprague-Dawley
- Parameters: regimen Daily Repeat, gender Male, age 6 weeks
- test_context: in vivo, po, 0 mg/kg, […], tissue Blood, route gavage, dose level Control, time 14 day
recorded_endpoint: Ret (%)
Answers are plain numbers, in %.

Use these answered entries as a reference point.
• CCCCc1oc2ccccc2c1C(=O)c1cc(I)c(OCCN(CC)CC)c(I)c1 [AMIODARONE] = 4.6
• OCCOCCN1CCN(C(c2ccccc2)c2ccc(Cl)cc2)CC1 (stereo unspecified) [HYDROXYZINE] = 4.8
• CCC1(c2ccccc2)C(=O)NC(=O)NC1=O [PHENOBARBITAL] = 5.1

# batch: return Ret for each of the 8 molecules below
1. ClC(Cl)(Cl)Cl [CARBON TETRACHLORIDE]
2. CC[C@H]1[C@@H]2C[C@H]3[C@@H]4N(C)c5ccccc5[C@]45C[C@@H]([C@@H]2[C@H]5O)N3[C@@H]1O [AJMALINE]
3. CN(C)C(=N)N=C(N)N [METFORMIN]
4. O=NN(CCCl)C(=O)NC1CCCCC1 [LOMUSTINE]
5. CC(C)N(CCC(C(N)=O)(c1ccccc1)c1ccccn1)C(C)C (stereo unspecified) [DISOPYRAMIDE]
6. CC1=C(CC(=O)O)c2cc(F)ccc2/C1=C\c1ccc([S+](C)[O-])cc1 (stereo unspecified)
7. CCc1oc2ccccc2c1C(=O)c1cc(Br)c(O)c(Br)c1 [BENZBROMARONE]
8. CN(C)CCC=C1c2ccccc2COc2ccccc21 [DOXEPIN]

Result:
3.9
3.8
4.8
4.9
4.4
4.3
4.7
4.8

====

Consider the following compounds; for each one, report its Na.
- Organism: Rattus norvegicus
- assay_procedure: Open TG-GATES - Regimen: Single
- Format: toxicity, organism-based, Sprague-Dawley
- Design: regimen Single, gender Male, age 6 weeks
- test_context: in vivo, po, 0 mg/kg, 6 h, tissue Plasma, route gavage, dose level Control
One number for each entry, in meq/L.

These recorded examples may help you get a feel for the data.
• OCCOCCN1CCN(C(c2ccccc2)c2ccc(Cl)cc2)CC1 (stereo not given) [HYDROXYZINE] = 141.6
• CCC1(c2ccccc2)C(=O)NC(=O)NC1=O = 142
• ClC(Cl)(Cl)Cl [CARBON TETRACHLORIDE] = 139.8
• CC(C)N(CCC(C(N)=O)(c1ccccc1)c1ccccn1)C(C)C (stereo not given) [DISOPYRAMIDE] = 140.6
• CC1=C(CC(=O)O)c2cc(F)ccc2/C1=C\c1ccc([S+](C)[O-])cc1 (stereo not given) = 142

Provide Na values for the following items, in order.
1. CCc1oc2ccccc2c1C(=O)c1cc(Br)c(O)c(Br)c1
2. O=NN(CCCl)C(=O)NC1CCCCC1
3. CN(C)CCC=C1c2ccccc2COc2ccccc21 [DOXEPIN]
4. CC[C@H]1[C@@H]2C[C@H]3[C@@H]4N(C)c5ccccc5[C@]45C[C@@H]([C@@H]2[C@H]5O)N3[C@@H]1O
5. CN(C)C(=N)N=C(N)N

Result:
1: 138.4; 2: 141.2; 3: 142.6; 4: 138.8; 5: 139.4

====

Kindly state LIVER for each of the entries shown.
- Species: Rattus norvegicus
- assay_procedure: Open TG-GATES - Regimen: Daily Repeat
- Assay type: toxicity, organism-based, Sprague-Dawley
- Parameters: regimen Daily Repeat, gender Male, age 6 weeks
- test_context: in vivo, po, 0 mg/kg, 72 h, tissue Liver, route gavage, dose level Control, time 3 day
Hey, just the number and the unit after it is fine.

Hey, quick one: what's LIVER for each of these?
1. O=NN(CCCl)C(=O)NC1CCCCC1 [LOMUSTINE]
2. CC1=C(CC(=O)O)c2cc(F)ccc2/C1=C\c1ccc([S+](C)[O-])cc1 (stereo not given)

Result:
1: 10.5 g; 2: 11.1 g

Answer for every listed entry: what is its LIVER? The entries follow.
1. CN(C)C(=N)N=C(N)N [METFORMIN]
2. ClC(Cl)(Cl)Cl [CARBON TETRACHLORIDE]
3. CCCCc1oc2ccccc2c1C(=O)c1cc(I)c(OCCN(CC)CC)c(I)c1 [AMIODARONE]

Result:
["10.6 g", "10.9 g", "11.2 g"]

====

Assign MCV to each entry below.
- Organism: Rattus norvegicus
- assay_procedure: Open TG-GATES - Regimen: Single
- Format: toxicity, organism-based, Sprague-Dawley
- Design: regimen Single, gender Male, age 6 weeks
- test_context: in vivo, po, 0 mg/kg, 3 h, tissue Blood, route gavage, dose level Control
One number for each entry, in fL.

- OCCOCCN1CCN(C(c2ccccc2)c2ccc(Cl)cc2)CC1 (stereo not given) [HYDROXYZINE]: 66.6

For every item below, please supply its MCV.
1. CCc1oc2ccccc2c1C(=O)c1cc(Br)c(O)c(Br)c1
2. CC[C@H]1[C@@H]2C[C@H]3[C@@H]4N(C)c5ccccc5[C@]45C[C@@H]([C@@H]2[C@H]5O)N3[C@@H]1O

Result:
[65.9, 66.3]

====

- Species: Rattus norvegicus
- assay_procedure: Open TG-GATES - Regimen: Single
- Type: toxicity, organism-based, Sprague-Dawley
- Parameters: regimen Single, gender Male, age 6 weeks
- test_context: in vivo, po, 0 mg/kg, 3 h, tissue Plasma, route gavage, dose level Control
recorded_endpoint: TC (mg/dL)
Give bare numbers, in mg/dL.

• CN(C)CCC=C1c2ccccc2COc2ccccc21 [DOXEPIN] = 74.8
• CCC1(c2ccccc2)C(=O)NC(=O)NC1=O = 78
• ClC(Cl)(Cl)Cl [CARBON TETRACHLORIDE] = 87.2
• CC(C)N(CCC(C(N)=O)(c1ccccc1)c1ccccn1)C(C)C (stereo not given) [DISOPYRAMIDE] = 69
• CCc1oc2ccccc2c1C(=O)c1cc(Br)c(O)c(Br)c1 = 75

Hi team, please reply with TC for each item in this list.
1. CC1=C(CC(=O)O)c2cc(F)ccc2/C1=C\c1ccc([S+](C)[O-])cc1 (stereo not given)
2. CN(C)C(=N)N=C(N)N
3. O=NN(CCCl)C(=O)NC1CCCCC1

Result:
1. 80.8
2. 87
3. 76.4

Report TC for every entry below.
1. CC[C@H]1[C@@H]2C[C@H]3[C@@H]4N(C)c5ccccc5[C@]45C[C@@H]([C@@H]2[C@H]5O)N3[C@@H]1O
2. OCCOCCN1CCN(C(c2ccccc2)c2ccc(Cl)cc2)CC1 (stereo not given) [HYDROXYZINE]

Result:
82.4
75.4
